- Target Desc: T1, human GIP receptor (human, UniProt P48546 22-466)
- T1 sequence (looked up): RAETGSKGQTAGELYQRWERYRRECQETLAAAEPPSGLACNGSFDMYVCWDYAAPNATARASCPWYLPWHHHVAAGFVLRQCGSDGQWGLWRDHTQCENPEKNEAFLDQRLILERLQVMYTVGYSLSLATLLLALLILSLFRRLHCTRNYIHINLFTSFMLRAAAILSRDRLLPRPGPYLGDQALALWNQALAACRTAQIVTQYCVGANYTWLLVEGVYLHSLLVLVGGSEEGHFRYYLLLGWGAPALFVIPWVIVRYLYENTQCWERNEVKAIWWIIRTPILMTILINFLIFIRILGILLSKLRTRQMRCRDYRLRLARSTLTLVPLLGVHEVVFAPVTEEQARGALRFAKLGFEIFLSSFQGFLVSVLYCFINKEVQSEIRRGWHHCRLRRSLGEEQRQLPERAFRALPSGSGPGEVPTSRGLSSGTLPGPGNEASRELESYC
- Protocol Text: cell-based or functional assay
Starred links: 1 amine or outer side, 2 acyl side, 3 side chain; linkers in the order of their positions; H or OH if unused. Non-standard residues stand in square brackets, D forms with d. Groups on a side chain read outwards from the residue. No end group written: not given here. *: point of attachment. C20 diacid = O=C(O)CCCCCCCCCCCCCCCCCCC(=O)*; γGlu = O=C(O)[C@H](CCC(=O)[*:2])N[*:1]; αMeF = C[C@](N)(Cc1ccccc1)C(=O)O; AEEA = NCCOCCOCC(=O)O; Ac3c = NC1(C(=O)O)CC1; Aib = CC(C)(N)C(=O)O
Rule: cAMP Rel. A (%) against human GIP, human GIP R cells below 2000% gives MET. Equal to or above 2000% gives NOT MET.

Answer whether the binder YXQGTXTSDYSIXLDKKAQXAFIEFLLETGPSSGAPPPS (Aib at 2; αMeF(2F) at 6; αMeL at 13; Lys 17 side chain AEEAc-AEEAc-γGlu-CO(CH2)18COOH; Aib at 20; C-terminal amide (NH2)) [Compound 19] has cAMP Rel. A (%) against human GIP, human GIP R cells strictly less than 2000%
NOT MET

Answer whether the binder Y[Aib]QGT[αMeF]TSDYSIXLDKK([AEEA-AEEA-γGlu-C20 diacid])AQ[Aib]AFIEFLLES[Aib]PSSGAPP[Ac3c]S-NH2 (not fully specified (residue 13); printed as Y-Aib-QGT-αMeF-TSDYSI-αMeF-LDKK(AEEAc-AEEAc-γGlu-CO(CH2)18COOH)AQ-Aib-AFIEFLLES-Aib-PSSGAPP-Ac3c-S-NH2) [Compound 28] has cAMP Rel. A (%) against human GIP, human GIP R cells strictly less than 2000%
MET

Answer whether the binder YXQGTXTSDYSIXLDKKAQXAFIEFLLEGRPSSXHPPPS (Aib at 2; αMeF(2F) at 6; αMeL at 13; Lys 17 side chain AEEAc-AEEAc-γGlu-CO(CH2)18COOH; Aib at 20; Aib at 34; C-terminal amide (NH2)) [Compound 25] has cAMP Rel. A (%) against human GIP, human GIP R cells strictly less than 2000%
MET

Answer whether the binder YXQGTXTSDYSIXLDKKAQXAFIEFLLEGGPSSGQPPPS (Aib at 2; αMeF(2F) at 6; αMeL at 13; Lys 17 side chain AEEAc-AEEAc-γGlu-CO(CH2)18COOH; Aib at 20; C-terminal amide (NH2)) [Compound 22] has cAMP Rel. A (%) against human GIP, human GIP R cells strictly less than 2000%
NOT MET

Answer whether the binder YXQGTXTSDYSIXLDKKAQXAFIEFLLETRPSSXHPPPS (Aib at 2; αMeF(2F) at 6; αMeL at 13; Lys 17 side chain AEEAc-AEEAc-γGlu-CO(CH2)18COOH; Aib at 20; Aib at 34; C-terminal amide (NH2)) [Compound 39] has cAMP Rel. A (%) against human GIP, human GIP R cells strictly less than 2000%
MET
